Taken from patent US3996231A.

# experiment: Acute oral toxicity / LD50 in the mouse
# condition.notes: in vivo, po, 2000 mg/kg
assay.readout: mortality at 144 h (%)
State the answer as a number, implicitly in %.

stdin: Item CCCCC1C(=O)NN(c2ccnc3cc(Cl)ccc23)C1=O (stereo not shown) has what recorded mortality at 144 h?
stdout: 50

====

# experiment: Acute oral toxicity / LD50 in the mouse
# condition.notes: in vivo, po
assay.readout: LD50 at 144 h

stdin: Item CCCCC1C(=O)NN(c2ccnc3cc(Cl)ccc23)C1=O (stereo not shown) has what recorded LD50 at 144 h?
stdout: ~2000 mg/kg

====

# experiment: Acute oral toxicity / LD50 in the mouse
# condition.notes: in vivo, po, 4000 mg/kg
assay.readout: mortality at 144 h
Answers without a unit are incomplete; give the number and then its unit.

stdin: Item CCCCC1C(=O)NN(c2ccnc3cc(Cl)ccc23)C1=O (stereo not shown) has what recorded mortality at 144 h?
stdout: 100%
